chromatographic logP reference
- Protocol: physchem
- Condition Notes: pH 2.3
Attribute Measured: chromatographic logP

>>> readout_number("CCN(C)C=Nc1cnc(-c2ccc(OC(F)(F)F)cc2)cc1C [compound 114]")
1.34
>>> readout_number("CCN(C=Nc1cnc(-c2ccc(Cl)c(C(F)(F)F)c2)cc1C)CC [Beispiel 119]")
1.92
>>> readout_number("Cc1cc(-c2ccc(OC(F)(F)F)cc2)ncc1N=CN(C)C [compound 113]")
1.25

###

chromatographic logP reference
- Protocol: physchem
- Condition Notes: pH 2.3
Attribute Measured: chromatographic logP

>>> readout_number("Cc1cc(-c2ccc(F)c(C(F)(F)F)c2)ncc1N=CN(C(C)C)C(C)C")
1.9
>>> readout_number("CC(=Nc1cnc(-c2ccc(Cl)c(C(F)(F)F)c2)cc1C)N1CCCCC1")
0.94
>>> readout_number("CCCCN(C=Nc1cnc(-c2ccc(Cl)c(C(F)(F)F)c2)cc1C)CCCC")
2.49
>>> readout_number("Cc1cc(-c2ccc(F)c(C(F)(F)F)c2)ncc1N=CN1CCCC1")
1.85
>>> readout_number("CCN(C)C=Nc1cnc(-c2ccc([Si](C)(C)C)cc2)cc1C")
1.6
>>> readout_number("Cc1cc(-c2ccc(Cl)c(C(F)(F)F)c2)ncc1N=CN1CCCC1")
1.75
>>> readout_number("Cc1cc(-c2ccc([Si](C)(C)C)cc2)ncc1N=CN(C)C")
1.51
>>> readout_number("Cc1cc(-c2ccc(Cl)c(C(F)(F)F)c2)ncc1N=CN(C(C)C)C(C)C")
2.23
>>> readout_number("CC(=Nc1cnc(-c2ccc(Cl)c(C(F)(F)F)c2)cc1C)N(C)C")
1.03

// data source = patent EP2264011A1
